# subject.of.test: Dihydrofolate reductase (Rattus norvegicus)
# Sequence (Q920D2 whole entry): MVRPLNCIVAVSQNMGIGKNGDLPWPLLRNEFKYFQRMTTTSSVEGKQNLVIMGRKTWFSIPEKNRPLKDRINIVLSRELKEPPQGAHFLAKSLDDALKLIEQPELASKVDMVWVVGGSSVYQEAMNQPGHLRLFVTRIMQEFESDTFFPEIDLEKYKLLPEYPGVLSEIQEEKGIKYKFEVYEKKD
pIC50: −log10 of the molar value.
readout.type: pIC50

The examples below pair each entry with its known result.
Nc1nc(N)c2nc(CNc3c(Cl)cc(Cl)cc3Cl)ccc2n1 = 6.24
CN(Cc1ccc2nc(N)nc(N)c2n1)c1cc(Cl)c(Cl)c(Cl)c1 = 7.06
COc1ccc(OC)c(NCc2ccc3nc(N)nc(N)c3n2)c1 = 6.55
Nc1nc(N)c2nc(CSc3ccc4ccccc4c3)ccc2n1 = 7.07
Nc1nc(N)c2nc(CNc3ccccc3Cl)ccc2n1 = 6.85
CN(Cc1ccc2nc(N)nc(N)c2n1)c1ccc(C(=O)C(F)(F)F)cc1 = 7.49
Nc1nc(N)c2nc(CNc3cc(Cl)c(Cl)c(Cl)c3)ccc2n1 = 7.36
Nc1nc(N)c2nc(CNc3cc(Cl)ccc3Cl)ccc2n1 = 6.70

(P) COc1cccc(N(C)Cc2ccc3nc(N)nc(N)c3n2)c1
(Q) C#CCN(Cc1ccc2nc(N)nc(N)c2n1)c1ccc(C(=O)C(F)(F)F)cc1
Ask | Which is greater in pIC50, the first item P or the second item Q ? Could you answer with the label of the item you picked?
Reply | Q

Data credit: ChEMBL document CHEMBL1129583
